Experiment: qHTS assay to identify small molecule antagonists of the estrogen related receptor signaling pathway with the pleiotropic PPARgamma coactivator (PGC) from Tox21 10K library - cell viability counter screen (AID 1224840); note: nearly all actives have a fitted effect of over 40% in size
Conditions: PGC/ERR reporter cells viability, CellTiter-Fluor, 17.5 h; series mostly up to 92.4 µM
Results filed as inconclusive are left out. The source made the active and inactive calls. Calls come from the whole dose curve; as a rule, active = well fitted cell-killing curve with a large enough effect in the repeat runs (not every such curve was filed as active); inconclusive = weak or mixed curves, or effect the other way; inactive = no such curve, though single readings can be large or run the other way.
Your reply should match one of these outcome classes. active, inactive

Answered examples (3):
{"compound-smiles": "O=[N+]([O-])c1ccc2ncccc2c1", "discrete-label": "inactive"}
{"compound-smiles": "CC(C)CC(O)CC(C)C", "discrete-label": "inactive"}
{"compound-smiles": "Oc1cccc2[nH]ccc12", "discrete-label": "inactive"}

GET /call?item= CC(=O)OCC(C)C returns the recorded outcome of this test.
inactive

GET /call?item= Cc1cc(CCCOc2c(C)cc(-c3noc(C(F)(F)F)n3)cc2C)on1 returns the recorded outcome of this test.
inactive

GET /call?item= Nc1c(Cl)cc(Cl)cc1[N+](=O)[O-] returns the recorded outcome of this test.
inactive

GET /call?item= Cc1ccc(NC(=O)N(C)C)cc1NC(=O)N(C)C returns the recorded outcome of this test.
inactive

GET /call?item= O=C(/C=C/c1ccc([N+](=O)[O-])cc1)c1ccccc1 returns the recorded outcome of this test.
active

GET /call?item= O=C(O)c1cccc(C[C@@H]2COc3ccc(OCc4nc5cc(F)ccc5s4)cc3[C@@H]2O)c1 returns the recorded outcome of this test.
inactive

----------
Experiment: qHTS assay to identify small molecule agonists of the retinoic acid receptor (RAR) signaling pathway (AID 1159553)
Conditions: C3RL4 RARE luciferase reporter, agonist, 6 h; series mostly up to 73.3 µM
Records with an inconclusive call do not appear. The source made the active and inactive calls. Calls come from the whole dose curve; as a rule, active = well fitted activation curve with a large enough effect in the repeat runs; inconclusive = weak or mixed curves, or effect the other way; inactive = no such curve, though single readings can be large or run the other way.
Your reply should match one of these outcome classes. active, inactive

{"compound": "N[C@@H](Cc1cc(I)c(O)c(I)c1)C(=O)O", "discrete-label": "inactive"}
{"compound": "O=C(O)CCS", "discrete-label": "inactive"}
{"compound": "Oc1ccc2c(c1)Cc1ccccc1-2", "discrete-label": "active"}
{"compound": "CC(O)Cn1cnc2c1c(=O)n(C)c(=O)n2C (configuration not stated)", "discrete-label": "inactive"}
{"compound": "CC(C)COC(=O)COc1cc(Cl)c(Cl)cc1Cl", "discrete-label": "inactive"}
{"compound": "COC(OC)OC", "discrete-label": "inactive"}

Switching to the query record.
GET /call?item= COC(=O)CC(C(C)=O)C(=O)OC (configuration not stated) returns the recorded outcome of this test.
inactive

----------
Target: Nuclear receptor subfamily 1 group I member 2 (Homo sapiens)
Assay: Human pregnane X receptor (PXR) small molecule agonists, qHTS assay (AID 1346982); note: nearly all actives have a fitted effect of over 35% in size; note: potency is the fitted concentration of half-maximal effect
Conditions: PXR-Luc HepG2, CYP3A4 luciferase reporter, 24 h; series mostly up to 92.4 µM
Records with an inconclusive call do not appear. The source made the active and inactive calls. The call rests on the fitted dose curve; in most records, active means well fitted activation curve with a large enough effect in the repeat runs; inconclusive means weak or mixed curves; inactive means no such curve, though single readings can be large or run the other way.
measured-quantity: Potency

// known answers, use as guide
{"compound": "O=C(C(=O)c1ccco1)c1ccco1", "result": "inactive"}
{"compound": "CC[C@@H](CO)NCCN[C@@H](CC)CO", "result": "inactive"}
{"compound": "Nc1nc2ccc(OC(F)(F)F)cc2s1", "result": "13.3 µM (active)"}
{"compound": "CS(=O)(=O)c1ccc([C@@H](C[C@H]2CCC(=O)C2)C(=O)Nc2cnccn2)cc1Cl", "result": "inactive"}
{"compound": "CC(=O)OC(C)C[N+](C)(C)C (stereo not drawn)", "result": "inactive"}

The reported value for CN1C(CSCC(F)(F)F)Nc2cc(Cl)c(S(N)(=O)=O)cc2S1(=O)=O (stereo not drawn) in terms of Potency is 29.8 µM (active)

The reported value for CCCCCCCC(=O)OCCCCCC in terms of Potency is inactive

The reported value for CCOC(=O)c1c(N)sc2c1CCN(Cc1ccccc1)C2 in terms of Potency is inactive

The reported value for Cc1cccc(C)c1NC(=O)c1cc(S(N)(=O)=O)c(Cl)cc1O in terms of Potency is inactive

The reported value for CCCCCCCCCCCC(=O)OCC(O)CO (stereo not drawn) in terms of Potency is inactive
